Values compiled from patent US11109593B2.

- Tested on: Amaranthus viridis
- test: Test Example 4: herbicidal effect test by treatment of leave and stem in dry field farming (seven days after seeding)
- Format: in vivo
- test context: 120 g/10a active ingredient; emulsion sprayed seven days after seeding; evaluated 14 days after treatment
quantity: herbicidal effect (herbicidal rate), Amaranthus viridis (%)
Could you give me the number in %? Just the number is fine.

A selection of reference data follows.
molecule	reported measurement
CCCC(CC)n1oc(=O)c(Cc2ccccc2N(S(=O)(=O)C(F)(F)F)S(=O)(=O)C(F)(F)F)c1C (stereo not shown) [Compound 1-971]	40
CSCCn1oc(=O)c(Cc2ccccc2N(C(=O)C2CC2)S(=O)(=O)C(F)(F)F)c1C [Compound 1-413]	40
CSCCn1oc(=O)c(Cc2ccccc2N(C(C)=O)S(=O)(=O)C(F)(F)F)c1C [Compound 1-305]	40

Consider now this further molecule.
Entry C=CC(C)n1oc(=O)c(Cc2ccccc2N(S(=O)(=O)C(F)(F)F)S(=O)(=O)C(F)(F)F)c1C (stereo not shown) [Compound 1-986] ; herbicidal effect (herbicidal rate), Amaranthus viridis = 60

* * *

- Tested on: Scirpus juncoides
- test: Test Example 2: herbicidal effect test by treatment during growing period in paddy rice cultivation (seven days after seeding)
- Assay type: in vivo
- test context: 120 g/10a active ingredient, assessed 14 days after treatment, dry weight vs untreated area
quantity: Herbicidal rate (%) Scirpus juncoides
Could you give me the number in %? Just the number is fine.

A selection of reference data follows.
compound	quantity	reported measurement
CCCCC(C)n1oc(=O)c(Cc2ccccc2NS(=O)(=O)C(F)(F)F)c1C (stereo not shown)	Herbicidal rate (%) Scirpus juncoides	90
CCC(C)n1oc(=O)c(Cc2ccccc2N(C(=O)c2ccccc2)S(=O)(=O)C(F)(F)F)c1C (stereo not shown)	Herbicidal rate (%) Scirpus juncoides	90
Cc1c(Cc2ccccc2NS(=O)(=O)C(F)(F)F)c(=O)on1CC1(C)CC1	Herbicidal rate (%) Scirpus juncoides	80

Consider now this further compound.
Entry Cc1c(Cc2ccccc2NS(=O)(=O)C(F)(F)F)c(=O)on1C(c1ccccc1)C(C)C (stereo not shown) ; Herbicidal rate (%) Scirpus juncoides = 80

* * *

- Test system: Scirpus juncoides
- test: Test Example 2: herbicidal effect test by treatment during growing period in paddy rice cultivation (seven days after seeding)
- Format: in vivo
- test context: 120 g/10a active ingredient, assessed 14 days after treatment, dry weight vs untreated area
quantity: Herbicidal rate (%) Scirpus juncoides
Could you give me the number in %? Just the number is fine.

compound	units symbol	Herbicidal rate (%) Scirpus juncoides
COCC(C)n1oc(=O)c(Cc2ccccc2N(C(=O)Cc2ccccc2)S(=O)(=O)C(F)(F)F)c1C (stereo not drawn)	%	90
CCOC(=O)N(c1ccccc1Cc1c(C)n(C(C)COC)oc1=O)S(=O)(=O)C(F)(F)F (stereo not drawn)	%	90
Cc1c(Cc2ccccc2N(S(=O)(=O)C(F)(F)F)S(=O)(=O)C(F)(F)F)c(=O)on1Cc1ccc(OC(F)(F)F)cc1	%	40
CCC(C)n1oc(=O)c(Cc2ccccc2N(C(=O)C2CCCO2)S(=O)(=O)C(F)(F)F)c1C (stereo not drawn)	%	90
Cc1c(Cc2ccccc2N(S(=O)(=O)C(F)(F)F)S(=O)(=O)C(F)(F)F)c(=O)on1CC1(C)CC1	%	90
CCCC(C)n1oc(=O)c(Cc2ccccc2N(C(=O)C2CC2)S(=O)(=O)C(F)(F)F)c1C (stereo not drawn)	%	90
Cc1c(Cc2ccccc2NS(=O)(=O)C(F)(F)F)c(=O)on1C1CCc2ccccc21 (stereo not drawn)	%	90
Cc1c(Cc2ccccc2NS(=O)(=O)C(F)(F)F)c(=O)on1CC1(C)COC1	%	90
CCC(C)n1oc(=O)c(Cc2ccccc2N(C(=O)c2ccccn2)S(=O)(=O)C(F)(F)F)c1C (stereo not drawn)	%	90
CCN(CC)C(=O)N(c1ccccc1Cc1c(C)n(C(C)c2ccccc2)oc1=O)S(=O)(=O)C(F)(F)F (stereo not drawn)	%	90

Entry C=CCOC(=O)N(c1ccccc1Cc1c(C)n(C(C)COC)oc1=O)S(=O)(=O)C(F)(F)F (stereo not drawn) ; Herbicidal rate (%) Scirpus juncoides = 90

Entry CCC(C)Cn1oc(=O)c(Cc2ccccc2N(C(=O)OC)S(=O)(=O)C(F)(F)F)c1C (stereo not drawn) ; Herbicidal rate (%) Scirpus juncoides = 90

Entry CCC(CC)Cn1oc(=O)c(Cc2ccccc2N(CC)S(=O)(=O)C(F)(F)F)c1C ; Herbicidal rate (%) Scirpus juncoides = 90

Entry Cc1c(Cc2ccccc2N(S(C)(=O)=O)S(=O)(=O)C(F)(F)F)c(=O)on1C(C)C ; Herbicidal rate (%) Scirpus juncoides = 90

Entry CCC(C)n1oc(=O)c(Cc2ccccc2N(C(=O)C2CC2)S(=O)(=O)C(F)(F)F)c1C (stereo not drawn) ; Herbicidal rate (%) Scirpus juncoides = 90

Entry Cc1c(Cc2ccccc2NS(=O)(=O)C(F)(F)F)c(=O)on1Cc1ccc(F)c(Cl)c1 ; Herbicidal rate (%) Scirpus juncoides = 40

Entry CCC(C)n1oc(=O)c(Cc2ccccc2N(C(=O)COC)S(=O)(=O)C(F)(F)F)c1C (stereo not drawn) ; Herbicidal rate (%) Scirpus juncoides = 90

Entry Cc1c(Cc2ccccc2NS(=O)(=O)C(F)(F)F)c(=O)on1Cc1ccccc1 ; Herbicidal rate (%) Scirpus juncoides = 90
